Please go through the items and note down their Rv90.
# Test system: MUTZ-3
# assayName: Chemical cytotoxicity, Rv90 (90% relative viability), propidium iodide staining
# testConditions: concentration yielding 90% relative viability, MUTZ-3; Table 2
One number for each entry, in µM.

- compound: "Nc1ccc(N)cc1"
  Rv90, µM: 75
- compound: "CCCCCCCCCCCCOS(=O)(=O)[O-].[Na+] [Sodium dodecyl sulphate]"
  Rv90, µM: 200
- compound: "O=CC=O"
  Rv90, µM: 300

Turning now to a further compound:
Task: # lookup: Rv90 of O=[N+]([O-])c1ccc(Cl)c([N+](=O)[O-])c1
Result: 4

###

Please go through the items and note down their SVM decision value.
# System: MUTZ-3
# assayName: GARD Respiratory Prediction Signature (GRPS) SVM classification of the independent test dataset
# testConditions: replicate 1; MUTZ-3, 24 h stimulation at GARD input concentration, 389 GRPS transcripts
One number for each entry.

Examples with their reported SVM decision value follow.
- molecule: "O=Cc1ccccc1 [Benzaldehyde]"
  property: "SVM decision value"
  measuredNumber: "−0.79"
- molecule: "Nc1ccc(N)cc1 [p-phenylenediamine]"
  property: "SVM decision value"
  measuredNumber: "−1.38"
- molecule: "O=[N+]([O-])c1ccc(Cl)c([N+](=O)[O-])c1 [2,4-dinitrochlorobenzene]"
  property: "SVM decision value"
  measuredNumber: "−1.66"
- molecule: "Clc1ccccc1 [Chlorobenzene]"
  property: "SVM decision value"
  measuredNumber: "−1.03"
- molecule: "CC(O)C(=O)O (stereo not shown) [Lactic acid]"
  property: "SVM decision value"
  measuredNumber: "−1.20"
- molecule: "Cc1ccc(S(=O)(=O)[N-]Cl)cc1.[Na+] [Chloramine T]"
  property: "SVM decision value"
  measuredNumber: 0.52

Dear colleague, could you please provide SVM decision value for the molecules listed below?
1. CCCCCCCC(=O)O [Octanoic acid]
2. C=CCc1ccc(O)c(OC)c1 [Eugenol]
3. O=C1OC(=O)c2ccccc21 [Phtalic Anhydride]
4. CCCCO [1-Butanol]
5. OCC=Cc1ccccc1 [Cinnamyl alcohol]
6. O=C(O)c1ccccc1O [Salicylic acid]
7. CCOC(=O)c1ccccc1C(=O)OCC [Diethyl phthalate]

Result:
1. −0.65
2. −1.67
3. 0.20
4. −0.32
5. −0.57
6. −0.73
7. −1.37

###

# Test system: MUTZ-3
# assayName: GARD Respiratory Prediction Signature (GRPS) SVM classification of the independent test dataset
# testConditions: replicate 2; MUTZ-3, 24 h stimulation at GARD input concentration, 389 GRPS transcripts
Could you please mark fulfilled for values of SVM decision value below -0.8 and not fulfilled for values at or above it?

- compound: "O=CC=O"
  assayedSystem: "MUTZ-3"
  labelClass: "not fulfilled"
- compound: "OCC=Cc1ccccc1"
  assayedSystem: "MUTZ-3"
  labelClass: "fulfilled"
- compound: "O=Cc1ccccc1"
  assayedSystem: "MUTZ-3"
  labelClass: "fulfilled"
- compound: "O=C1OC(=O)c2ccccc21 [Phtalic Anhydride]"
  assayedSystem: "MUTZ-3"
  labelClass: "not fulfilled"
- compound: "OCC(O)CO"
  assayedSystem: "MUTZ-3"
  labelClass: "fulfilled"
- compound: "C=CCc1ccc(O)c(OC)c1"
  assayedSystem: "MUTZ-3"
  labelClass: "fulfilled"
- compound: "Sc1nc2ccccc2s1"
  assayedSystem: "MUTZ-3"
  labelClass: "not fulfilled"
- compound: "Nc1ccc(N)cc1"
  assayedSystem: "MUTZ-3"
  labelClass: "fulfilled"
- compound: "O=C(O)c1ccc(O)cc1 [p-hydroxybenzoic acid]"
  assayedSystem: "MUTZ-3"
  labelClass: "not fulfilled"
- compound: "O=[N+]([O-])c1ccc(Cl)c([N+](=O)[O-])c1"
  assayedSystem: "MUTZ-3"
  labelClass: "fulfilled"

Task: Consider the compound Cc1ccc(S(=O)(=O)[N-]Cl)cc1.[Na+] . Is its SVM decision value strictly less than -0.8?
Result: not fulfilled

###

# Test system: MUTZ-3
# assayName: GARD Respiratory Prediction Signature (GRPS) SVM classification of the independent test dataset
# testConditions: replicate 1; MUTZ-3, 24 h stimulation at GARD input concentration, 389 GRPS transcripts
Could you please mark fulfilled for values of SVM decision value below -0.8 and not fulfilled for values at or above it?

Task: Consider the molecule Sc1nc2ccccc2s1 . Is its SVM decision value strictly less than -0.8?
Result: not fulfilled

Task: Quick one: Oc1cccc(O)c1
Result: fulfilled

Task: Quick one: O=CC=O
Result: fulfilled

Task: Quick one: CCCCCCCCCCCCOS(=O)(=O)[O-].[Na+] [Sodium dodecyl sulphate]
Result: fulfilled

Task: Quick one: C1CNCCN1
Result: not fulfilled

Task: Quick one: OCC(O)CO
Result: fulfilled

###

# Tested on: MUTZ-3
# assayName: Chemical cytotoxicity, Rv90 (90% relative viability), propidium iodide staining
# testConditions: human
property: Rv90 (µM)
One number for each entry, in µM.

Examples with their reported Rv90 follow.
- compoundSmiles: "CC=Cc1ccc(O)c(OC)c1"
  assayedSystem: "MUTZ-3"
  measuredNumber: 300
- compoundSmiles: "O=CCCCC=O"
  assayedSystem: "MUTZ-3"
  measuredNumber: 10
- compoundSmiles: "C=O"
  assayedSystem: "MUTZ-3"
  measuredNumber: 80

Turning now to a further compound:
Task: # lookup: Rv90 of C=CCc1ccc(O)c(OC)c1
Result: 300

###

# Test system: MUTZ-3
# assayName: GARD Respiratory Prediction Signature (GRPS) SVM classification of the independent test dataset
# testConditions: replicate 2; MUTZ-3, 24 h stimulation at GARD input concentration, 389 GRPS transcripts
property: SVM decision value

- compound: "CC(O)C(=O)O (stereo not drawn)"
  SVM decision value: "−0.81"
- compound: "CCCCCCCCCCCCOS(=O)(=O)[O-].[Na+] [Sodium dodecyl sulphate]"
  SVM decision value: "−0.80"
- compound: "CCCCCCCC(=O)O"
  SVM decision value: "−0.79"
- compound: "Oc1cccc(O)c1"
  SVM decision value: "−0.99"
- compound: "CCCCO"
  SVM decision value: 0.12
- compound: "C1CNCCN1"
  SVM decision value: "−0.12"

Dear colleague, could you please provide SVM decision value for the compounds listed below?
1. CCOC(=O)c1ccccc1C(=O)OCC [Diethyl phthalate]
2. Clc1ccccc1
3. O=C(O)c1ccccc1O

Result:
1. −0.96
2. −0.76
3. −1.08
